test system: Fibroblast; assay: Incucyte cell viability with human fibroblast; format: toxicity, cell-based; conditions: 24 h, 10 µM, compound concentration 10 uM, replicate number 1; note: unitless GR value; below 1 slowed growth and below 0 cell loss
Peptide text beside a SMILES is read from it. * marks the point of attachment. Cbz = O=C(OCc1ccccc1)*; CH2F = FC*
Mark not met for Growth Rate values under 0.5, and met for everything at or above.

Example entries begin here.
Could you please find out whether `O=C(NCCCn1ccnc1)c1cc2nc(-c3ccccc3)cc(-c3ccccc3)n2n1` has Growth Rate that meets 0.5 or exceeds it?
met

Could you please find out whether `NC(=O)c1cccc(NC(=O)CCC(=O)NCCc2cn(CCNS(=O)(=O)c3cccc(C(=O)O)c3)nn2)c1` has Growth Rate that meets 0.5 or exceeds it?
not met

Could you please find out whether `Cc1ncc(Cl)cc1NCc1ccc(C(=O)N[C@@H](CC2CCCC2)C(=O)NC2CC2)s1` has Growth Rate that meets 0.5 or exceeds it?
met

Could you please find out whether `C[C@H](NC(=O)[C@H](Cc1ccccc1)NC(=O)OCc1ccccc1)C(=O)CF` has Growth Rate that meets 0.5 or exceeds it?
met

Could you please find out whether `COc1cc2c(Nc3ccc(Br)cc3F)ncnc2cc1OCC1CCN(C)CC1` has Growth Rate that meets 0.5 or exceeds it?
not met

Could you please find out whether `O=C(c1ccc2[nH]ccc2c1)N1CCN(S(=O)(=O)c2ccc3[nH]c(=O)oc3c2)CC1` has Growth Rate that meets 0.5 or exceeds it?
not met

Could you please find out whether COC(=O)CC[C@H](NC(=O)[C@H](Cc1c[nH]c2ccccc12)NC(=O)OCc1ccccc1)C(=O)N[C@@H](Cc1cnc[nH]1)C(=O)N[C@@H](CC(=O)OC)C(=O)CF (Cbz-WE(OMe)HD(OMe)-CH2F) has Growth Rate that meets 0.5 or exceeds it?
not met

Pending molecule:
Could you please find out whether `Cc1nc(F)ccc1-c1cc(Cn2ccn(C)c2=N)cc(C(=O)NCc2ccc(Cl)c(Cl)c2)c1.O=C(O)C(F)(F)F` has Growth Rate that meets 0.5 or exceeds it?
met

====

tested on: HEK-293T; assay: Incucyte cell viability with HEK293T; format: toxicity, cell-based; conditions: human, 24 h, 10 µM, compound concentration 10 uM, replicate number 1; note: unitless GR value; below 1 slowed growth and below 0 cell loss
Readout Type: Growth Rate
Kindly provide the number alone.

Reported Growth Rate for `C[C@@H]1CN(c2ncc(Cl)c(Nc3ccc4c(c3)n(CCC(C)(C)O)c(=O)n4C)n2)C[C@H](C)C1(F)F` : what is it?
0.18

Reported Growth Rate for `CCn1c(=O)c(C)cn(Cc2nnc(-c3ccc(F)c(O)c3F)s2)c1=O` : what is it?
1

Reported Growth Rate for `COc1cc2c(NC3CCN(C)CC3)nc(N3CCCN(C)CC3)nc2cc1OCCCN(C)C` : what is it?
0.78

Reported Growth Rate for `Nc1cc(F)ccc1NC(=O)c1ccc(CNC(=O)/C=C/c2cccnc2)cc1` : what is it?
1

Reported Growth Rate for `CC(C)c1cnc(CSc2cnc(NC(=O)C3CCNCC3)s2)o1` : what is it?
-0.28

Reported Growth Rate for `O=C(NO)c1cnc(NC2(c3ccccc3)CC2)nc1` : what is it?
0.73

Reported Growth Rate for `CCOCC1(COCC)CCC(c2n[nH]cc2CN(C)CCNC)CC1.Cl` : what is it?
0.61

Reported Growth Rate for `COc1cc(C(C)C)c2c(c1)S(=O)(=O)N(COc1cc(=O)n3cccc(OCCN4CCCCC4)c3n1)C2=O` : what is it?
-0.22
